Measured melting temperature of individual entries
- System: HeLa Kyoto;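 further: HeLa Kyoto cells synchronized by double thymidine or nocodazole block, proteins quantified by TMT10plex mass spectrometry, three independent biological replicates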
- test: melting temperature (median over replicates), in situ; higher = more thermally stable
- condition info: cell cycle stage: mitosis
Dear colleague, please return just the value in °C, with no unit written.

Solved entries (count: 5):
MTEQAISFAKDFLAGGIAAAISKTAVAPIERVKLLLQVQHASKQIAADKQYKGIVDCIVRIPKEQGVLSFWRGNLANVIRYFPTQALNFAFKDKYKQIFLGGVDKHTQFWRYFAGNLASGGAAGATSLCFVYPLDFARTRLAADVGKSGTEREFRGLGDCLVKITKSDGIRGLYQGFSVSVQGIIIYRAAYFGVYDTAKGMLPDPKNTHIVVSWMIAQTVTAVAGVVSYPFDTVRRRMMMQSGRKGADIMYTGTVDCWRKIFRDEGGKAFFKGAWSNVLRGMGGAFVLVLYDELKKVI [SLC25A6]: 57.4
TRIOBP: 49.3
MAALGRPFSGLPLSGGSDFLQPPQPAFPGRAFPPGADGAELAPRPGPRAVPSSPAGSAARGRVSVHCKKKHKREEEEDDDCPVRKKRITEAELCAGPNDWILCAHQDVEGHGVNPSVSGLSIPGILDVICEEMDQTTGEPQCEVARRKLQEIEDRIIDEDEEVEADRNVNHLPSLVLSDTMKTGLKREFDEVFTKKMIESMSRPSMELVLWKPLPELLSDKPKPSSNTKNYTGESQAKHVAAGTAFPQRTELFSEPRPTGMSLYNSLETATSTEEEMEL [CCDC117]: 53.2
MGNLLKVLTCTDLEQGPNFFLDFENAQPTESEKEIYNQVNVVLKDAEGILEDLQSYRGAGHEIREAIQHPADEKLQEKAWGAVVPLVGKLKKFYEFSQRLEAALRGLLGALTSTPYSPTQHLEREQALAKQFAEILHFTLRFDELKMTNPAIQNDFSYYRRTLSRMRINNVPAEGENEVNNELANRMSLFYAEATPMLKTLSDATTKFVSENKNLPIENTTDCLSTMASVCRVMLETPEYRSRFTNEETVSFCLRVMVGVIILYDHVHPVGAFAKTSKIDMKGCIKVLKDQPPNSVEGLLNALRYTTKHLNDETTSKQIKSMLQ [FAM49B]: 54.2
MSTGPTAATGSNRRLQQTQNQVDEVVDIMRVNVDKVLERDQKLSELDDRADALQAGASQFETSAAKLKRKYWWKNCKMWAIGITVLVIFIIIIIVWVVSS [VAMP3]: 54.7

Value of measured melting temperature for the entry MLSVASRSGPFAPVLSATSRGVAGALRPLVQATVPATPEQPVLDLKRPFLSRESLSGQAVRRPLVASVGLNVPASVCYSHTDIKVPDFSEYRRLEVLDSTKSSRESSEARKGFSYLVTGVTTVGVAYAAKNAVTQFVSSMSASADVLALAKIEIKLSDIPEGKNMAFKWRGKPLFVRHRTQKEIEQEAAVELSQLRDPQHDLDRVKKPEWVILIGVCTHLGCVPIANAGDFGGYYCPCHGSHYDASGRIRLGPAPLNLEVPTYEFTSDDMVIVG [UQCRFS1] : 55.5

For reference, reported melting temperature for MDGDGDPESVGQPEEASPEEQPEEASAEEERPEDQQEEEAAAAAAYLDELPEPLLLRVLAALPAAELVQACRLVCLRWKELVDGAPLWLLKCQQEGLVPEGGVEEERDHWQQFYFLSKRRRNLLRNPCGEEDLEGWCDVEHGGDGWRVEELPGDSGVEFTHDESVKKYFASSFEWCRKAQVIDLQAEGYWEELLDTTQPAIVVKDWYSGRSDAGCLYELTVKLLSEHENVLAEFSSGQVAVPQDSDGGGWMEISHTFTDYGPGVRFVRFEHGGQDSVYWKGWFGARVTNSSVWVEP [FBXO2] stands at 50.8

Reported melting temperature for MAGSSEEAPDYGRGVVIMDDWPGYDLNLFTYPQHYYGDLEYVLIPHGIIVDRIERLAKDIMKDIGYSDIMVLCVLKGGYKFCADLVEHLKNISRNSDRFVSMKVDFIRLKSYRNDQSMGEMQIIGGDDLSTLAGKNVLIVEDVVGTGRTMKALLSNIEKYKPNMIKVASLLVKRTSRSDGFRPDYAGFEIPNLFVVGYALDYNEYFRDLNHICVINEHGKEKYRV [PRTFDC1] was 55.5

Looking up MTDRYTIHSQLEHLQSKYIGTGHADTTKWEWLVNQHRDSYCSYMGHFDLLNYFAIAENESKARVRFNLMEKMLQPCGPPADKPEEN [SF3B5] , I see its melting temperature listed as 51.1

Entry MDALKSAGRALIRSPSLAKQSWGGGGRHRKLPENWTDTRETLLEGMLFSLKYLGMTLVEQPKGEELSAAAIKRIVATAKASGKKLQKVTLKVSPRGIILTDNLTNQLIENVSIYRISYCTADKMHDKVFAYIAQSQHNQSLECHAFLCTKRKMAQAVTLTVAQAFKVAFEFWQVSKEEKEKRDKASQEGGDVLGARQDCTPSLKSLVATGNLLDLEETAKAPLSTVSANTTNMDEVPRPQALSGSSVVWELDDGLDEAFSRLAQSRTNPQVLDTGLTAQDMHYAQCLSPVDWDKPDSSGTEQDDLFSF [LDLRAP1] ; melting temperature = 50

Value of measured melting temperature for the entry MASASGAMAKHEQILVLDPPTDLKFKGPFTDVVTTNLKLRNPSDRKVCFKVKTTAPRRYCVRPNSGIIDPGSTVTVSVMLQPFDYDPNEKSKHKFMVQTIFAPPNTSDMEAVWKEAKPDELMDSKLRCVFEMPNENDKLNDMEPSKAVPLNASKQDGPMPKPHSVSLNDTETRKLMEECKRLQGEMMKLSEENRHLRDEGLRLRKVAHSDKPGSTSTASFRDNVTSPLPSLLVVIAAIFIGFFLGKFIL [VAPA] : 54.5

Looking up MAGVGAGPLRAMGRQALLLLALCATGAQGLYFHIGETEKRCFIEEIPDETMVIGNYRTQMWDKQKEVFLPSTPGLGMHVEVKDPDGKVVLSRQYGSEGRFTFTSHTPGDHQICLHSNSTRMALFAGGKLRVHLDIQVGEHANNYPEIAAKDKLTELQLRARQLLDQVEQIQKEQDYQRYREERFRLTSESTNQRVLWWSIAQTVILILTGIWQMRHLKSFFEAKKLV [TMED4] , I found its melting temperature recorded as 56.4

The measured melting temperature associated with MAGPAAAFRRLGALSGAAALGFASYGAHGAQFPDAYGKELFDKANKHHFLHSLALLGVPHCRKPLWAGLLLASGTTLFCTSFYYQALSGDPSIQTLAPAGGTLLLLGWLALAL [TMEM256] reads 56.6

src = the supplement of paper PMC5998384
